Assign remaining at 5 h, 40 µM to each entry below.
- test_protocol: Stability in human plasma assessed as parent compound remaining at 40 uM measured after 5 hrs by LC-MS/MS analysis
- Format: ADME, cell-free
- run_conditions: read-out: Stability

Field remaining at 5 h, 40 µM (entry CC(C)OC(=O)OC(C)n1c(=O)ccn([C@@H]2O[C@H](CO[P@@](=O)(N[C@@H](C)C(=O)OC(C)C)Oc3ccccc3)[C@@H](O)[C@@]2(C)F)c1=O (some centres not stated) ) reads 78.9%

Field remaining at 5 h, 40 µM (entry "CC(C)COC(=O)n1c(=O)ccn([C@@H]2O[C@H](CO[P@@](=O)(N[C@@H](C)C(=O)OC(C)C)Oc3ccccc3)[C@@H](O)[C@@]2(C)F)c1=O" ) reads 0%
